Data provenance: patent US8143259B2

target: UniProt Q1A7N1; experiment: In Vitro Canine TRPM8 Functional Assay (Ca2+ fluorescence, icilin activation); settings: HEK293 cells stably expressing canine TRPM8; icilin activation; Ca2+ fluorescence
readout kind: IC50 (nM)

I: O=C(C(Nc1ccccc1F)c1ccc(Cl)cc1)N1CCCC1c1ccccc1F (single isomer, unassigned) [Cpd 157]
II: O=C(C(Nc1ccccc1F)c1ccc(C(F)(F)F)cc1)N1CCCC1c1ccccn1 (centres unmarked)
Which value of IC50 is smaller, the one for I or the one for II ? Give the label of your selection.
II

I: O=C(C(Nc1ccccc1F)c1ccc(C(F)(F)F)cc1)N1CCCC1c1ccc(F)cc1 (centres unmarked)
II: CC(C)(C)c1ccc(C(Nc2ccccc2)C(=O)N2CCCC2c2ccccc2Cl)cc1 (single isomer, unassigned) [Cpd 2]
III: O=C(C(Nc1ccccc1F)c1ccc2ncccc2c1)N1CCCC1c1ccccc1F (centres unmarked) [Cpd 248]
IV: COc1ccccc1C1CCCN1C(=O)C(Nc1ccccc1)c1ccc(Cl)cc1 (centres unmarked)
I would appreciate it if you could sort these 4 molecules by IC50, starting from the smallest number. Order the labels as requested and list them.
IV, III, I, II

a: O=C(C(Nc1ccccc1F)c1ccc(Cl)cc1)N1CCCC1c1ccccc1Cl (centres unmarked)
b: O=C(C(Nc1ccccc1F)c1ccc2c(c1)CCO2)N1CCC[C@H]1c1ccccc1F (mixture of isomers)
Which value of IC50 is greater, the one for a or the one for b ? Give the label of your selection.
a

A: O=C(O)c1ccc(-c2ccc(C(Nc3ccccc3F)C(=O)N3CCCC3c3ccccc3Cl)cc2)cc1 (centres unmarked)
B: COC(=O)c1ccc(C2CCCN2C(=O)C(Nc2ccccc2F)c2ccc(-c3ccccn3)cc2)cc1 (centres unmarked)
Which value of IC50 is smaller, the one for A or the one for B ? Give the label of your selection.
A

* * *

molecular target: canine TRPM8 (Canis lupus familiaris, UniProt Q1A7N1); construct: expressed in transfected cells; assay: In Vitro Canine TRPM8 Functional Assay (Ca2+ fluorescence, icilin activation); type: cell-based; details: HEK293, 1 μM compound; canine TRPM8 HEK293; icilin
Sequence (Q1A7N1 1-1104): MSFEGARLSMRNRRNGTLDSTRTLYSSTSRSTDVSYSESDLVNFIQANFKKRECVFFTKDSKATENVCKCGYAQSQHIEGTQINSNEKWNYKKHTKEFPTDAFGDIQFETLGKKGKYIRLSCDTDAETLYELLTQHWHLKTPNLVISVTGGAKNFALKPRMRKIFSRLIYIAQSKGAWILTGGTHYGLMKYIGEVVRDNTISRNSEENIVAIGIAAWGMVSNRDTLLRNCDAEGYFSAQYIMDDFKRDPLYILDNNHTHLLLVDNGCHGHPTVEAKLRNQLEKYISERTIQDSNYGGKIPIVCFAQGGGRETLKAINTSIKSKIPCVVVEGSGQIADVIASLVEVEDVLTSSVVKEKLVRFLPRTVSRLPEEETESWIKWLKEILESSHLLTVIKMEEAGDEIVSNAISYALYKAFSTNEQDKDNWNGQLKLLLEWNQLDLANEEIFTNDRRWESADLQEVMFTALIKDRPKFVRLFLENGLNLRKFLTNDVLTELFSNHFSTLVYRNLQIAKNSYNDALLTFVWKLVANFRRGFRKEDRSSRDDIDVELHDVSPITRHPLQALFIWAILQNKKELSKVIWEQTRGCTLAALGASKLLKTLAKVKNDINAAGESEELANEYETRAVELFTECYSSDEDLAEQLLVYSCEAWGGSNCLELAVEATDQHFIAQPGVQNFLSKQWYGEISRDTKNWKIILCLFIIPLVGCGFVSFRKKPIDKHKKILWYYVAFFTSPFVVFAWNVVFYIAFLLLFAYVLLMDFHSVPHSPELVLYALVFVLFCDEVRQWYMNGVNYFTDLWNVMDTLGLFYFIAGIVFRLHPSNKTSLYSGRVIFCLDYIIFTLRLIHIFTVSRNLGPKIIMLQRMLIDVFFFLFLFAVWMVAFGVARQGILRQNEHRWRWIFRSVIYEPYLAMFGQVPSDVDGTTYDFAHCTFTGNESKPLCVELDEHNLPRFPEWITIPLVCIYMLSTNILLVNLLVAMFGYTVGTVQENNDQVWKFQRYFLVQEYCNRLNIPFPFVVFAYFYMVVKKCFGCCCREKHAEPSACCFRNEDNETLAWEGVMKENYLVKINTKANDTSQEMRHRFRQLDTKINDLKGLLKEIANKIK
readout kind: inhibition at 1 µM (%)

| molecule | readout units | inhibition at 1 µM |
| --- | --- | --- |
| O=C(C(Nc1ccccc1)c1ccc(C(F)(F)F)cc1)N1CCCC1c1cccnc1 (stereo not drawn) | % | 100 |
| CC(C)(C)c1ccc(C(Nc2ccccc2)C(=O)N2CCCCCC2c2ccccc2)cc1 (stereo not drawn) | % | 95.4 |
| CC(C)(C)c1ccc(C(Nc2ccccc2)C(=O)N2CCC[C@H]2CNc2ccccc2)cc1 (single isomer, unassigned) | % | 102 |
| CC(C)(C)c1ccc(C(Nc2ccccc2)C(=O)N2CCCC2c2cccc(Cl)c2)cc1 (single isomer, unassigned) | % | 86.6 |
| CC(C)(C)c1ccc(C(Nc2ccccc2)C(=O)N2CCCC2c2ccccc2)cc1 (stereo not drawn) | % | 103 |
| CC(C)(C)c1ccc(C(Nc2ccccc2)C(=O)N2CCCCC2c2ccccc2)cc1 (stereo not drawn) | % | 103 |
| O=C(C(Nc1ccccc1)c1ccc(C(F)(F)F)cc1)N1CCCC1c1ccccc1Cl (racemic) | % | 103 |
| CC(C)(C)c1ccc(C(Nc2ccccc2)C(=O)N2CCc3ccccc32)cc1 (stereo not drawn) | % | 94.8 |
| CC(C)(C)c1ccc(C(Nc2ccccc2)C(=O)N2CCC(c3ccccc3)C2)cc1 (stereo not drawn) | % | 103 |
| CC(C)(C)c1ccc(C(Nc2ccccc2)C(=O)N2CCCCC2Cc2ccccc2)cc1 (stereo not drawn) | % | 102 |
| O=C(C(Nc1ccccc1)c1ccc(C(F)(F)F)cc1)N1CCCC1c1ccccc1 (stereo not drawn) | % | 98.2 |
| CC(C)(C)c1ccc(C(Nc2ccccc2)C(=O)N2CCC(O)(c3ccccc3)CC2)cc1 (stereo not drawn) | % | 101 |

* * *

Target: canine TRPM8 (Canis lupus familiaris, UniProt Q1A7N1)
Construct: expressed in transfected cells
Experiment: In Vitro Canine TRPM8 Functional Assay (Ca2+ fluorescence, icilin activation)
Assay type: cell-based
Conditions: HEK293, 0.2 μM compound; canine TRPM8 HEK293; icilin
Protocol: The functional activity of compounds of the formula (I) was determined by measuring changes in intracellular calcium concentration using a Ca^2+-sensitive fluorescent dye. The changes in fluorescent signal were monitored by a fluorescence plate reader, either a FLIPR™ (Molecular Devices) or FDSS (Hamamatsu). Increases in intracellular Ca^2+ concentration were readily detected upon activation with icilin. […]
readout kind: inhibition at 0.2 µM (%)

These solved cases illustrate the format of a correct answer.
| compound | target | readout units | inhibition at 0.2 µM |
| --- | --- | --- | --- |
| O=C(C(Nc1ccccc1F)c1ccc(C(F)(F)F)cc1)N1CCCC1c1ccccc1Cl (single isomer, unassigned) [Cpd 189] | canine TRPM8 (Canis lupus familiaris, UniProt Q1A7N1) | % | 98 |
| O=C(C(Nc1ccccc1F)c1ccc(C(F)(F)F)cc1)N1CCCC1c1ccccc1Cl (racemic) [Cpd 68] | canine TRPM8 (Canis lupus familiaris, UniProt Q1A7N1) | % | 89 |
| COC(=O)c1cccc(NC(C(=O)N2CCCC2c2ccccc2F)c2ccc3c(c2)CCO3)c1 (stereo not shown) | canine TRPM8 (Canis lupus familiaris, UniProt Q1A7N1) | % | 99 |
| O=C(C(Nc1ccccc1F)c1cnc2ccccc2c1)N1CCC[C@H]1c1ccccc1F (single isomer, unassigned) | canine TRPM8 (Canis lupus familiaris, UniProt Q1A7N1) | % | 93 |

I: O=C(C(Nc1ccccc1F)c1ccc2cccnc2c1)N1CCCC1c1ccccc1F (stereo not shown)
II: CC(=O)N(c1ccccc1F)[C@H](C(=O)N1CCC[C@H]1c1ccccc1F)c1ccc(C(F)(F)F)cc1
Which value of inhibition at 0.2 µM is greater, the one for I or the one for II ? Give the label of your selection.
I
(I: 92%, II: 47%)

* * *

biological target: canine TRPM8 (Canis lupus familiaris); test: In Vitro Canine TRPM8 Functional Assay (Ca2+ fluorescence, icilin activation); conditions: HEK293 cells stably expressing canine TRPM8; icilin activation; Ca2+ fluorescence
readout kind: IC50 (nM)

a: CC(C)(C)c1ccc(C(Nc2ccccc2)C(=O)N2CCCC2c2cccc(Cl)c2)cc1 (single isomer, unassigned) [Cpd 8]
b: O=C(C(Nc1ccccc1F)c1ccc(-c2ccccn2)cc1)N1CCC[C@H]1c1ccccc1F (mixture of isomers) [Cpd 289]
Which value of IC50 is smaller, the one for a or the one for b ? Give the label of your selection.
b

* * *

target: canine TRPM8 (Canis lupus familiaris); construct: expressed in transfected cells; assay: In Vitro Canine TRPM8 Functional Assay (Ca2+ fluorescence, icilin activation); type: cell-based; conditions: HEK293, 0.2 μM compound; canine TRPM8 HEK293; icilin
readout kind: inhibition at 0.2 µM (%)

| compound | inhibition at 0.2 µM [%] |
| --- | --- |
| Cc1c(C(Cc2ccccc2F)C(=O)N2Cc3ccccc3C2)sc2ccccc12 (stereo not shown) | 96 |
| O=C(C(Nc1c(F)cccc1F)c1ccc(Br)cc1)N1CCC[C@H]1c1ccccc1F (stereo partly shown) | 96 |
| O=C(C(Nc1ccccc1F)c1ccc(-c2ccccn2)cc1)N1CCC[C@H]1c1ccccc1F (mixture of isomers) | 84 |
| COC(=O)c1cccc([C@@H]2CCCN2C(=O)C(Nc2ccccc2F)c2ccc(C(F)(F)F)cc2)c1 (mixture of isomers) | 99 |
| O=C(C(Nc1ccccc1F)c1cnc2ccccc2c1)N1CCCC1c1ccccc1F (stereo not shown) | 89 |
| Nc1ccc(C2CCCN2C(=O)C(Nc2ccccc2F)c2ccc(Cl)cc2)cc1 (stereo not shown) | 98 |
| CC(C)(C)c1ccc(C(Nc2ccccc2F)C(=O)N2CCC[C@H]2c2ccccc2F)cn1 (mixture of isomers) [Cpd 355] | 100 |
| O=C(C(Nc1ccccc1F)c1ccc(-c2ccccc2)nc1)N1CCC[C@H]1c1ccccc1F (mixture of isomers) [Cpd 306] | 101 |
| O=C(C(Nc1c(F)cccc1F)c1ccc(Br)cc1)N1CCCC1c1ccccc1F (single isomer, unassigned) | 98 |
| O=C(C(Nc1ccccc1F)c1ccc(C(F)(F)F)cc1)N1CCCC1c1cccnc1 (stereo not shown) | 102 |
| O=C(C(Nc1ccccc1F)c1ccc(N2CCOCC2)nc1)N1CCC[C@H]1c1ccccc1F (mixture of isomers) | 100 |
| O=C(C(Nc1ccccc1F)c1cc2ccccc2s1)N1CCCC1c1ccccn1 (stereo not shown) [Cpd 321] | 94 |
| O=C(C(Cc1c(F)cccc1F)c1ccc(C(F)(F)F)cc1)N1CCCC1c1ccccc1Cl (stereo not shown) | 98 |
| O=C(C(Nc1ccccc1F)c1ccc(N2CCCCC2)nc1)N1CCC[C@H]1c1ccccc1F (mixture of isomers) | 101 |
| O=C(C(Nc1ccccc1F)c1ccc(C(F)(F)F)cc1)N1CCCC1c1cncc(Br)c1 (stereo not shown) [Cpd 344] | 98 |
| O=C(C(Cc1ccccc1F)c1ccc(C(F)(F)F)cc1)N1Cc2ccccc2C1 (stereo not shown) | 89 |
| O=C(C(Nc1ccccc1F)c1ccc(Cl)cc1)N1CCCc2ccccc21 (stereo not shown) | 91 |
| O=C(C(Nc1ccccc1F)c1ccc(-c2ccccn2)cc1)N1CCCC1c1ccccc1Cl (single isomer, unassigned) | 101 |
| COc1ccccc1[C@@H]1CCCN1C(=O)C(Nc1ccccc1F)c1ccc(N2CCCCC2)nc1 (mixture of isomers) | 101 |
